Data origin: patent US20240383958A1

Target: T1, APJ-eGFP fusion protein on CHO-M1 cells (UniProt P35414 1-380)
T1 sequence (looked up): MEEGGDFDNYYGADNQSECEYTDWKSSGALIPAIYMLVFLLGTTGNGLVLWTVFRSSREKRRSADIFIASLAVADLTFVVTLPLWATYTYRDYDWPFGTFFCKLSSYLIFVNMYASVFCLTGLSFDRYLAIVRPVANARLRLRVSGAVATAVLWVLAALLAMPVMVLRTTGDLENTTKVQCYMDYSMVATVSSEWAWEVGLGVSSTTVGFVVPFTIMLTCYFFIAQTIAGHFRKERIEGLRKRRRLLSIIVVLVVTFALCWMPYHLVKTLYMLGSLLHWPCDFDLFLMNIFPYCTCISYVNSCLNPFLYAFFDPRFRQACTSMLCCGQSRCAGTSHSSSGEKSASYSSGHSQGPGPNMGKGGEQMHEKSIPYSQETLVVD
Experiment: cell-based or functional assay
Listed next: entries and their corresponding Internalization Score.
I only need the number, thanks.

BINDER	Internalization Score
ELA-D (Fc fusion) DKTHTSPPSPAPEAAGGPSVFLFPPKPKDTLMISRTPEVTCVVVDVSHEDPEVKFNWYVDGVEVHNAKTKPREEQYNSTYRVVSVLTVLHQDWLNGKEYKCKVSNKALPAPIEKTISKAKGQPREPQVYTLPPSREEMTKNQVNLTCLVKGFYPSDIAVEWESNGQPENNYKTTPPVLDSDGSFFLNSTLTVDKSRWQQGNVFSCSVMHEALHNHYTQKSLSLSPGKGGGGSGGGGSGGGGSKLRKHNCLQRRCMPLHQRVPFP	1

IN: I'd like to know its Internalization Score. The binder in question is ELA-G (Fc fusion) DKTHTSPPSPAPEAAGGPSVFLFPPKPKDTLMISRTPEVTCVVVDVSHEDPEVKFNWYVDGVEVHNAKTKPREEQYNSTYRVVSVLTVLHQDWLNGKEYKCKVSNKALPAPIEKTISKAKGQPREPQVYTLPPSREEMTKNQVNLTCLVKGFYPSDIAVEWESNGQPENNYKTTPPVLDSDGSFFLNSTLTVDKSRWQQGNVFSCSVMHEALHNHYTQKSLSLSPGKGGGGSGGGGSGGGGSKLRKHNCLQRRCMPLHSYVPFP
OUT: 1

IN: Entry to check: ELA-F (Fc fusion) DKTHTSPPSPAPEAAGGPSVFLFPPKPKDTLMISRTPEVTCVVVDVSHEDPEVKFNWYVDGVEVHNAKTKPREEQYNSTYRVVSVLTVLHQDWLNGKEYKCKVSNKALPAPIEKTISKAKGQPREPQVYTLPPSREEMTKNQVNLTCLVKGFYPSDIAVEWESNGQPENNYKTTPPVLDSDGSFFLNSTLTVDKSRWQQGNVFSCSVMHEALHNHYTQKSLSLSPGKGGGGSGGGGSGGGGSKLRKHNCLKRRCMPLHSRVPFP
OUT: 3

IN: Record: APL-L (Fc fusion) DKTHTSPPSPAPEAAGGPSVFLFPPKPKDTLMISRTPEVTCVVVDVSHEDPEVKFNWYVDGVEVHNAKTKPREEQYNSTYRVVSVLTVLHQDWLNGKEYKCKVSNKALPAPIEKTISKAKGQPREPQVYTLPPSREEMTKNQVNLTCLVKGFYPSDIAVEWESNGQPENNYKTTPPVLDSDGSFFLNSTLTVDKSRWQQGNVFSCSVMHEALHNHYTQKSLSLSPGKGGGGSGGGGSGGGGSQRPRLQHKNPMAW
OUT: 0

IN: Repeat with APL-B (Fc fusion) DKTHTSPPSPAPEAAGGPSVFLFPPKPKDTLMISRTPEVTCVVVDVSHEDPEVKFNWYVDGVEVHNAKTKPREEQYNSTYRVVSVLTVLHQDWLNGKEYKCKVSNKALPAPIEKTISKAKGQPREPQVYTLPPSREEMTKNQVNLTCLVKGFYPSDIAVEWESNGQPENNYKTTPPVLDSDGSFFLNSTLTVDKSRWQQGNVFSCSVMHEALHNHYTQKSLSLSPGKGGGGSGGGGSGGGGSQRPRLSHKGPMVF
OUT: 2
